# credit: a melting point compilation (Tetko et al.; mined from patent text by program, amines drawn as free bases though some values may be those of a salt)

Exercise: for every item that follows, state its recorded melting point.

Entry c1cc2ccsc2cn1 — recorded melting point = < 50 °C

The molecule CC(=O)c1ccc2c(c1)S(=O)(=O)c1ccccc1O2 showed melting point equal to 163 to 165 °C

// sample CC(C)C(C(=O)Nc1n[nH]c(=S)s1)N(C(=O)OCc1ccccc1)c1ccccc1F (stereo not given) , its melting point was 148 °C

# melting point of CC(=O)OC1CC2=CC(=O)C3C4CCCC4(C)CCC3C2(C)C(OC(C)=O)C1 (stereo not given) = 220 to 221 °C

The molecule COC(=O)c1ccc2c(c1)C(SCCI)c1ccccc1CO2 (stereo not given) showed melting point equal to 111 to 113 °C

The measured melting point associated with COC(=O)c1cc2c3ccccc3n(S(=O)(=O)c3ccccc3)c2s1 reads 195 to 197 °C

The molecule listed as CC(=O)N1CCN(C(=O)c2cc3ccnc(Cl)c3[nH]2)CC1 shows melting point equal to 179 to 184 °C

Looking up Nc1ccc(-c2scc3c2OCCO3)cc1 , I found its melting point recorded as 98.5 to 99 °C

melting point for CSC1CCN(C(=O)CCSC(C)=O)C1C(=O)O (stereo not given) is 153 to 157 °C

Recorded melting point (molecule CCOC(=O)C(N=Nc1ccc(Br)cc1C(=O)c1ccccn1)NC(=O)CCl (stereo not given) ): 160 to 162 °C

Form field melting point, entry O=C(O)c1ccc(N2Cc3ccccc3C2=O)cc1 : > 295 °C

For record N#Cc1ccc(CN2CCNC2=O)cc1 the listed melting point is 127 to 133 °C

Quick note, melting point for CCOCCO[C@@H]1c2ccn3c(C)c(C)nc3c2N[C@H](c2ccccc2)[C@H]1OC(=O)OCCCC(Cl)CC (stereo not given in full) landed at 124 °C

In plain terms, C=C(C)OC1OC(n2cc(C)c(=O)n(CC(=O)c3ccccc3)c2=O)CC1OC(=O)c1ccccc1 (stereo not given) has a documented melting point of 112 to 113 °C

The molecule identified as C=CCONC(=O)c1nc(-c2ccc(Cl)c(OC)c2F)nc(N)c1Cl registered its melting point at 159 to 161 °C

Value of melting point reported for the molecule CCc1cc(OCCCN(C)Cc2ccc(OC)c(OC)c2)ccc1NC(=O)c1cccc2c(=O)c3cccc(F)c3[nH]c12 is 146 °C

GET /value?item= COc1cc2cc(CO)c(CO)c(-c3ccnc(-n4c(=O)cc(C(=O)O)c5ccccc54)c3)c2cc1OC &field=melting point returns > 250 °C

melting point recorded for this molecule, O=C(O)Cc1ccc(-c2nc3ccccc3o2)cc1F , is 213 to 216 °C

response.value for CNC(SC)=C(C#N)C#N (field: melting point) = 119 to 120 °C

// field: melting point; key: CC(=O)NCCSc1cc(N)c([N+](=O)[O-])cc1N ; value = 162 °C

The measured melting point associated with NCC1CCc2[nH]c3ccc(OC(F)(F)F)cc3c2C1 (stereo not given) reads 148 to 150 °C

The molecule identified as [O-][N+]1=C(c2ccccc2)C2=NCCN2c2cc(N3CCNCC3)ccc21 registered its melting point at 209 to 211 °C

The reported melting point of the molecule CN(C)CCCOc1ccc(C[C@H](NC(=O)[C@@H]2CCCN2S(=O)(=O)c2ccc(Cl)s2)C(=O)O)cc1 was > 200 °C

Field melting point (entry C=CCCNS(=O)(=O)CC(=O)C1=C(C)NC(C)=C(C(=O)OC(C)C)C1c1cccc([N+](=O)[O-])c1 (stereo not given) ) reads 137 to 140 °C

The molecule CCOC(=O)CC(NS(=O)(=O)c1cccc(-c2cccc(NC(=NC#N)NC3CC3)c2)c1)c1ccccc1 (stereo not given) showed melting point equal to 82 °C

The molecule listed as O=C(O)C1Cc2c(ccc3c(=O)c4c(Cl)cccc4oc23)O1 (stereo not given) has a reported melting point of 283 to 286 °C

melting point recorded for this molecule, CCOc1cc2c(cc1OC)Nc1[nH]cnc(=O)c1C2 , is 335 to 336 °C

Entry COc1ccc(-n2c(-c3sc(Nc4ccccc4)nc3C)nc3ccccc3c2=O)cc1 ; melting point = 265 to 266 °C

// melting point lookup, molecule = O=C1OC2(CCc3ccccc32)c2ccccc21 (stereo not given) , result: 138 to 139 °C

NC(=CC(=O)C1CC1)c1ccncc1 yielded melting point of 159 to 166 °C

----------
property-measured: melting point

response.value for CC(C)C1C(=O)OC(=O)N1c1ccc(Cl)cc1 (centres undefined) (field: melting point) = 137 to 138 °C

Reported melting point of CCOC(=O)CNC(=O)N(C(=O)NCC(=O)OCC)c1ccc(C(=O)/C=C/c2cc(OC)c(OC)c(-c3cccs3)c2)cc1 : 83 to 86 °C

// melting point value for CCCc1ccc2nc(Cl)c(S(N)(=O)=O)n2n1 : 174 to 175 °C

Field melting point (entry CCOP(=O)(Cc1ccc(NC(=O)c2sc(SC)c3c2CCc2nc(C)oc2-3)cc1)OCC ) reads 197 to 198 °C

----------
Task for the reader: assign each of the following compounds its reported melting point.

Just so you know, measured melting point for CSc1cccc(Oc2ncc(F)cc2C(=O)N[C@H]2CC[C@@H](CO)CC2)c1 came out at 123 to 126 °C

Query CCOC(=O)c1cc(=O)c(Oc2ccc(OC)cc2)co1 yields melting point of 106 to 107 °C

Memo: COc1ccc(S(=O)(=O)n2ccc3ccccc32)cc1 , reported melting point: 124 to 126 °C

Given item CN(C)S(=O)(=O)c1ccc(O)c(O)c1 , the value recorded as its melting point is 142 °C

// field: melting point; key: O=C(O)Cc1cn(-c2ccccc2)nc1OCc1ccccc1 ; value = 105 to 106 °C

Input O=C1NC(c2ccccc2)CN1S(=O)(=O)c1ccc2c(c1)CCN2C(=S)Nc1ccc(F)cc1 (stereo not drawn) . Output melting point: 190 to 192 °C

So for O=C(O)CCN1C(=O)c2cccc([N+](=O)[O-])c2C1=O , the logged melting point turned out to be 146 to 148 °C

Noted for COc1ccc(Cl)cc1C1(F)C(=O)Nc2ccc(F)cc21 (stereo not drawn) : its melting point reads 205 to 207 °C

Lab note: measured melting point of CCSC1=C(c2ccc(O)cc2)C(=O)c2cc(O)ccc21 was 78 to 81 °C

Lookup result for O=C(O)c1ccc(OCCCCCCc2cccc(OCc3ccccc3)c2OCc2ccccc2)c(Cl)c1 ; measured melting point: 87 to 89 °C

The compound CON=C(C)C(C)=NOc1ccccc1C(=NOC)C(=O)OC showed melting point equal to 93 to 94 °C

Looking up CCOC1CC2(C)C(CCC3C4CCC(C(C)=O)C4(C)CC(NC(=O)OCC(Cl)(Cl)Cl)C32)CC1OC(=O)OCC(Cl)(Cl)Cl (stereo not drawn) , I found its melting point recorded as 147 to 149 °C

The reported melting point of the compound O=C(O)c1ccnc(-c2cccc3oc(Cc4cccc(C(F)(F)F)c4)cc23)c1 was 187 to 188 °C

----------
Would you mind telling me the reported melting point of each entry?

melting point for Brc1ccc(C#CC#Cc2ccc(Br)cc2)cc1 is 264 to 265 °C

The value of melting point measured for the compound CN1C2=C(CSC2)C(=O)Nc2cccnc21 turned out to be 240 to 241 °C

The value of melting point measured for the compound COc1cccc(NC(=S)NC(NC(=O)c2ccc(C)cc2)C(F)(F)F)c1 (stereo unspecified) turned out to be 206 to 208 °C

Record summary for Cc1ccn2c(C)c(-c3ccc4c(c3)N(C)C(=O)CS4)nc2c1 : reported melting point = 231 °C

Quick note, melting point for CS(=O)(=O)c1ccc(-c2cc(=O)n(C3CCCCC3)nc2-c2ccc(F)cc2)cc1 landed at 86 to 90 °C

Short answer for CCc1c2c(nc3cc(F)c(OC)cc13)-c1cc3c(c(=O)n1C2)COC(=O)CC3(O)CC (stereo unspecified) : melting point was > 275 °C

Per the record, C[C@@H]1NC(=O)c2cccc(N)c2NC1=O has melting point of 320 °C

// field: melting point; key: CCc1cn(-c2nccs2)c2c1C(=O)CC(C)(C)C2 ; value = 58 to 60 °C

Lab note: measured melting point of CC(C)(C)OC(=O)N1CCO[C@@H](c2ccc(C(N)=O)cc2)C1 was 179 °C

melting point measured on Nc1ccc2c(c1)CS(=O)(=O)N2CCF = 119 to 121 °C

Sure, the documented melting point for CS(=O)(=O)c1cccc(S(N)(=O)=O)c1 is 99.5 to 101 °C

----------
Please provide measured melting point for the entries that follow.
Numbers only here, please. The scale is °C.

melting point measured on Nc1cc(=O)n(Cc2ccc(Cl)c(C(F)(F)F)c2)[nH]1 = 132

Recorded result, CCCCOc1cc(/C=C(\OCC)C(=O)O)ccc1OCCc1ccc(N(C)S(C)(=O)=O)cc1 , melting point: 112
